# test-target: recombinant human baculovirus-expressed cMET (Homo sapiens (Human))
# Sequence (P08581 25-1390): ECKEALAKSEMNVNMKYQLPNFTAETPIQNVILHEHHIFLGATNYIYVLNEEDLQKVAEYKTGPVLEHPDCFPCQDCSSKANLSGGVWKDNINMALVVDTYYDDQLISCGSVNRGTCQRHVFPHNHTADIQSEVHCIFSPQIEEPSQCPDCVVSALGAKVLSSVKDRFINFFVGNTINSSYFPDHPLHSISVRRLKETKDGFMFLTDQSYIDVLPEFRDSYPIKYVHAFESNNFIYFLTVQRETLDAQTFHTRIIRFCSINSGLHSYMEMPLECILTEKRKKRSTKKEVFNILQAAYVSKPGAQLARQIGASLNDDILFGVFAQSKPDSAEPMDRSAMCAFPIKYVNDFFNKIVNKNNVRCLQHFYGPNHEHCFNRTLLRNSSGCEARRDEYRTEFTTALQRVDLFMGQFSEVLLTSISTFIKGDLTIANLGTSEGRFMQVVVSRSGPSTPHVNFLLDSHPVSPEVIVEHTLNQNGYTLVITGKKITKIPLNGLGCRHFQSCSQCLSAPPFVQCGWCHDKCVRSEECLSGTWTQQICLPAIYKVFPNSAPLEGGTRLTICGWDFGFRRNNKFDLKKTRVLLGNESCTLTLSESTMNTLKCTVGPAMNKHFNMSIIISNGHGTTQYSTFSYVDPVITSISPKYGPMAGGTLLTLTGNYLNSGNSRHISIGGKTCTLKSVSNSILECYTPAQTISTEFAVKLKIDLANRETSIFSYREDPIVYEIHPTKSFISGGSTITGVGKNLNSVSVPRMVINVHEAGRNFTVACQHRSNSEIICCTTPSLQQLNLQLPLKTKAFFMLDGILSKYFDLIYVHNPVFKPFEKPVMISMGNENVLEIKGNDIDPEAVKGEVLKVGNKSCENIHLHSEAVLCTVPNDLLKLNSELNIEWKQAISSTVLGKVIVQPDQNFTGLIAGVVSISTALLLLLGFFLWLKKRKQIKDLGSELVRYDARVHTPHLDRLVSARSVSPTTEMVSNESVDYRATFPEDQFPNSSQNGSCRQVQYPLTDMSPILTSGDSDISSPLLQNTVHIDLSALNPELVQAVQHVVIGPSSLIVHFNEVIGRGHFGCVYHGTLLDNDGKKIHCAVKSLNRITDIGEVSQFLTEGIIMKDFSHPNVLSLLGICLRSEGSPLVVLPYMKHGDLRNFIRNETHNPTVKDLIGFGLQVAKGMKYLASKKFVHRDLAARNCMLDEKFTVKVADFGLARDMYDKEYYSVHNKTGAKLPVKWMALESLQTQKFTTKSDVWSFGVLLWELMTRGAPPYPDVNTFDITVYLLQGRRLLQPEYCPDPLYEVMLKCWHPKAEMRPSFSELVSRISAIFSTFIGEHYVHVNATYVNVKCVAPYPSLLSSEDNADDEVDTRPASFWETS
# experiment-description: C-MET Kinase Assay (HTRF KinEASE)
# Assay type: biochemical
# settings: average of two or more determinations; read-out: c-MET IC50
property-measured: IC50

Consider the following illustrative entries.
compound: COc1cc2nccc(Oc3ccc(NC(=O)c4cn(C(C)C)c(=O)n(-c5ccccc5)c4=O)cc3F)c2cc1OC [Example 101]
IC50: 10 to 100 nM

compound: COc1cc2nccc(Oc3c(C)cc(NC(=O)c4cn(C(C)C)c(=O)n(-c5ccc(F)cc5)c4=O)cc3C)c2cc1OC [Example 162]
IC50: 10 to 100 nM

compound: C=CCn1cc(C(=O)Nc2ccc(Oc3ccnc4cc(OC)c(OC)cc34)cc2F)c(=O)n(-c2ccc(F)cc2)c1=O [Example 88]
IC50: 10 to 100 nM

compound: COc1cc2nccc(Oc3c(F)cc(NC(=O)c4c[nH]c(=O)n(-c5ccc(F)cc5)c4=O)cc3F)c2cc1OC [Example 89]
IC50: 101 to 1000 nM

Sample CCn1cc(C(=O)Nc2ccc(Oc3ncnc4cc(OC)c(OC)cc34)cc2)c(=O)n(-c2ccc(F)cc2)c1=O [Example 142] ; IC50 observed: 10 to 100 nM

Sample C#CCn1nc(C(=O)Nc2ccc(Oc3ccnc4cc(OC)c(OC)cc34)c(F)c2)c(=O)n(-c2ccc(F)cc2)c1=O [Example 113] ; IC50 observed: < 10 nM
